Data provenance: paper PMC10054477

System: HCT-116 cells
EXPERIMENT: CCK-8 cell viability assay, HCT-116
Format: cell-based
MEASUREMENT_SETUP: Homo sapiens, Table 1, 72 h, mean (n = 3)
PARAMETER: IC50 (µM)

CCOC(=O)c1cnc2ccc(-c3cncc(NS(=O)(=O)c4ccccc4)c3)cn12 [HS-173, reference compound] | 0.19
COc1ncc(-c2ccc3c(c2)sc2c(NC4CC4)ncnc23)cc1NS(=O)(=O)c1ccc(F)cc1F [11d] | 0.19
COc1ncc(-c2ccc3c(c2)sc2c(OCCN(C)C)ncnc23)cc1NS(=O)(=O)c1ccc(F)cc1F [11k] | 0.25
COc1ncc(-c2ccc3c(c2)sc2c(NC(C)C)ncnc23)cc1NS(=O)(=O)c1ccc(F)cc1F [11g] | 0.22

###

ASSAY_TARGET: PI3Kα (Homo sapiens)
Construct: purchased SignalChem P27-122DH
EXPERIMENT: ADP-Glo kinase assay, PI3Kα enzyme inhibition
Assay type: biochemical
MEASUREMENT_SETUP: mean (n = 2)
PARAMETER: IC50 (nM)

COc1ncc(-c2ccc3nccc(-c4ncc(C(=O)NC(C)C)o4)c3c2)cc1NS(=O)(=O)c1ccc(F)cc1F [22c] | 0.22

(a) COc1ncc(-c2ccc3nccc(-c4ncc(C(=O)NC5CC5)o4)c3c2)cc1NS(=O)(=O)c1ccc(F)cc1F [22d]
(b) COCCCNC(=O)c1cnc(-c2ccnc3ccc(-c4cnc(OC)c(NS(=O)(=O)c5ccc(F)cc5F)c4)cc23)o1 [22f]
Q: Parameter check: reported IC50 is higher for which label, a or b ? Reply with the label of the item you choose.
Ans: b
(b: 0.38 nM, a: 0.22 nM)

###

System: MCF-7 cells
EXPERIMENT: CCK-8 cell viability assay, MCF-7
Format: cell-based
MEASUREMENT_SETUP: Homo sapiens, MCF7; Table 2; 72 h, mean (n = 3)
PARAMETER: IC50 (µM)

// known answers, use as guide
COCCNc1ncnc2ncc(-c3cnc(OC)c(NS(=O)(=O)c4ccc(F)cc4F)c3)cc12 [17j] | 0.75
COc1ncc(-c2cnc3ncnc(NCCN(C)C)c3c2)cc1NS(=O)(=O)c1ccc(F)cc1F [17d] | 0.73

(A) COc1ncc(-c2cnc3ncnc(NCC4CC4)c3c2)cc1NS(=O)(=O)c1ccc(F)cc1F [17l]
(B) COc1ncc(-c2cnc3ncnc(NC4CC4)c3c2)cc1NS(=O)(=O)c1ccc(F)cc1F [17b]
Q: Parameter check: reported IC50 is higher for which label, A or B ? Reply with the label of the item you choose.
Ans: B
(B: 0.91 µM, A: 0.63 µM)

###

ASSAY_TARGET: PI3Kα (Homo sapiens, UniProt P42336)
Construct: purchased SignalChem P27-122DH
Sequence (P42336 whole entry): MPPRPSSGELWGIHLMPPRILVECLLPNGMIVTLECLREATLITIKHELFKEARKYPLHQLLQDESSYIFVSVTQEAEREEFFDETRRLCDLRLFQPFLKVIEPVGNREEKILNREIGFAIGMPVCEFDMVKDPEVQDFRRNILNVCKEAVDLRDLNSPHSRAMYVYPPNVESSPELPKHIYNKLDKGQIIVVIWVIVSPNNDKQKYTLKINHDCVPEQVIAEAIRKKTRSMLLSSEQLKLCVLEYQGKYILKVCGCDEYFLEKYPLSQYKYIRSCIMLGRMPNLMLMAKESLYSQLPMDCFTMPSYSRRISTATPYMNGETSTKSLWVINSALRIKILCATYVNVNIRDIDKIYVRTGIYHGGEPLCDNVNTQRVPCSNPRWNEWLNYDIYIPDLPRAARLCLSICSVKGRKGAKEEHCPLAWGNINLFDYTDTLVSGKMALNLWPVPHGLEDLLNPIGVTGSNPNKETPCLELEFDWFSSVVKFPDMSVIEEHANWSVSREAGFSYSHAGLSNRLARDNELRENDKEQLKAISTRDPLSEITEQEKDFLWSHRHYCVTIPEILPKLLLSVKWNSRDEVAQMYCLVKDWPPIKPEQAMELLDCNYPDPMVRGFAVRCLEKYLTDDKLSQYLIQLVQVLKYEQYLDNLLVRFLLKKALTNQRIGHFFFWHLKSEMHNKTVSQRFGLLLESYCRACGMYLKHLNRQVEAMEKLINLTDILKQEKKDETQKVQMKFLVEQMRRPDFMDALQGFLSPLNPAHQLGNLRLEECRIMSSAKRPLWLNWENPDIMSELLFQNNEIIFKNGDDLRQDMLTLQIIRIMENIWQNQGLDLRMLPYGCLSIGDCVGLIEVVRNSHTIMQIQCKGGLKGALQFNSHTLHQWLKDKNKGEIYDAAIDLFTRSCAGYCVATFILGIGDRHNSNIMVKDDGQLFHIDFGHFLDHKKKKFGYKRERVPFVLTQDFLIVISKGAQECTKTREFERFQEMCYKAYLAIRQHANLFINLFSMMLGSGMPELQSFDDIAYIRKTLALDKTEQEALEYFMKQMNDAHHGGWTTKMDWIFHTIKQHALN
Sequence (P27986 whole entry partner): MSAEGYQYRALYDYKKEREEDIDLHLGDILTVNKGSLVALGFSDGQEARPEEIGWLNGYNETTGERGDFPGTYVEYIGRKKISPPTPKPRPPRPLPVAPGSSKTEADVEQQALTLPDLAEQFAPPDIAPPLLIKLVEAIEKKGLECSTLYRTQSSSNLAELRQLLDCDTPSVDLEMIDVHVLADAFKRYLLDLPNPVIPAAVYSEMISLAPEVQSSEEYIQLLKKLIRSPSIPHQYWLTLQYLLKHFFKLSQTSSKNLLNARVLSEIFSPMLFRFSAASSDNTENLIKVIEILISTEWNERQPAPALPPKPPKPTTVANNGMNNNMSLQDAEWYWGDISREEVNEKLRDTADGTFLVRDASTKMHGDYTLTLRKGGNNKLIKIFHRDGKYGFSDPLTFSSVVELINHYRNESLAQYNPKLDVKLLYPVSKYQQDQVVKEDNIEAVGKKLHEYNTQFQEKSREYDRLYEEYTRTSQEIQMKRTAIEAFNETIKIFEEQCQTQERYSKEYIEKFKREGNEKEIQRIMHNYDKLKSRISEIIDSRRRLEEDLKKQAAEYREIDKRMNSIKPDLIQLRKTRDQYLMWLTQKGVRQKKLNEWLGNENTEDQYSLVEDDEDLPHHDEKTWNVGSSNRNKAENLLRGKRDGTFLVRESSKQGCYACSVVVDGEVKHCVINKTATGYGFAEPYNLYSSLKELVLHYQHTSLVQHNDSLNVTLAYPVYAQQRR
EXPERIMENT: ADP-Glo kinase assay, PI3Kα enzyme inhibition
Format: biochemical
MEASUREMENT_SETUP: Table 2; at 1 nM
PARAMETER: inhibition at 0.001 µM (%)

// known answers, use as guide
COc1ncc(-c2cnc3ncnc(NCCN4CCOCC4)c3c2)cc1NS(=O)(=O)c1ccc(F)cc1F [17g] | 11
COCCNc1ncnc2ncc(-c3cnc(OC)c(NS(=O)(=O)c4ccc(F)cc4F)c3)cc12 [17j] | 24
COc1ncc(-c2cnc3ncnc(NCC4CCCCC4)c3c2)cc1NS(=O)(=O)c1ccc(F)cc1F [17k] | 22
COc1ncc(-c2cnc3ncnc(NCCO)c3c2)cc1NS(=O)(=O)c1ccc(F)cc1F [17h] | 24
CCCCNc1ncnc2ncc(-c3cnc(OC)c(NS(=O)(=O)c4ccc(F)cc4F)c3)cc12 [17c] | 21
COc1ncc(-c2cnc3ncnc(NCC4CC4)c3c2)cc1NS(=O)(=O)c1ccc(F)cc1F [17l] | 25
COc1ncc(-c2cnc3ncnc(N4CCOCC4)c3c2)cc1NS(=O)(=O)c1ccc(F)cc1F [17e] | 36
COc1ncc(-c2cnc3ncnc(NCCN(C)C)c3c2)cc1NS(=O)(=O)c1ccc(F)cc1F [17d] | 31

(A) COc1ncc(-c2cnc3ncnc(NC(C)C)c3c2)cc1NS(=O)(=O)c1ccc(F)cc1F [17a]
(B) COc1ncc(-c2cnc3ncnc(NC4CC4)c3c2)cc1NS(=O)(=O)c1ccc(F)cc1F [17b]
(C) COc1ncc(-c2cnc3ncnc(N4CCC(C)CC4)c3c2)cc1NS(=O)(=O)c1ccc(F)cc1F [17f]
Q: # rank by inhibition at 0.001 µM, ascending (min first) Lab note: final answer is the ordered label list.
Ans: C, B, A
